# Assay Overview: phase I pharmacokinetics in blood (dried blood spot, LC-MS/MS, noncompartmental analysis)
# Format: in vivo, human
# Assay Conditions: human, whole blood (dried blood spot), intravenous, 260 mg/m2, 260 mg/m^2, cycle 1 Day 22, N = 2, mean; read-out: CL (converted)

Given Smiles | clearance [mL/min]
O=C(NCCN1CCOCC1)Nc1nc2ccc(Sc3nnc4ccc(-c5ccc(F)cc5)nn34)cc2s1 | 533

* * *

# Assay Overview: phase I pharmacokinetics in blood (dried blood spot, LC-MS/MS, noncompartmental analysis)
# Format: in vivo, human
# Assay Conditions: human, whole blood (dried blood spot), intravenous, 260 mg/m2, 260 mg/m^2, cycle 1 Day 22, N = 2, mean
Result Type: AUC

Given Smiles | Experimental Value
O=C(NCCN1CCOCC1)Nc1nc2ccc(Sc3nnc4ccc(-c5ccc(F)cc5)nn34)cc2s1 | 12600 ng·h/mL
